- assay procedure: Urinary excretion study in rats after oral NS, SF or CNS (LC–MS/MS)
- Assay type: in vivo
- particulars: male, Sprague Dawley, rat, urine, oral, oral CNS 110 mg/kg, 6 h
Exercise: for every item that follows, state its recorded concentration at 6 h.
API: value field is a number in ng/mL; no unit string.

Qu. What value of measured concentration at 6 h is listed for CC(C)=CCC[C@](C)(O[C@@H]1O[C@H](CO[C@@H]2O[C@H](CO)[C@@H](O)[C@H](O)[C@H]2O)[C@@H](O)[C@H](O)[C@H]1O)[C@H]1CC[C@]2(C)[C@@H]1[C@H](O)C[C@@H]1[C@@]3(C)CC[C@H](O[C@@H]4O[C@H](CO)[C@@H](O)[C@H](O)[C@H]4O[C@@H]4O[C@H](CO)[C@@H](O)[C@H](O)[C@H]4O)C(C)(C)[C@@H]3CC[C@]12C [ginsenoside Rb1] ?
Ans. 111

Qu. Would you mind doing CC(C)=CCC[C@](C)(O[C@@H]1O[C@H](CO)[C@@H](O)[C@H](O)[C@H]1O)[C@H]1CC[C@]2(C)[C@@H]1[C@H](O)C[C@@H]1[C@@]3(C)CC[C@H](O[C@@H]4O[C@H](CO)[C@@H](O)[C@H](O)[C@H]4O[C@@H]4O[C@H](CO)[C@@H](O)[C@H](O)[C@H]4O)C(C)(C)[C@@H]3CC[C@]12C [ginsenoside Rd] as well?
Ans. 17

Qu. Would you mind doing CC(C)=CCC[C@](C)(O[C@@H]1O[C@H](CO)[C@@H](O)[C@H](O)[C@H]1O)[C@H]1CC[C@]2(C)[C@@H]1[C@H](O)C[C@@H]1[C@@]3(C)CC[C@H](O)C(C)(C)[C@@H]3[C@@H](O[C@@H]3O[C@H](CO)[C@@H](O)[C@H](O)[C@H]3O)C[C@]12C [ginsenoside Rg1] as well?
Ans. 544

Qu. Would you mind doing CC(C)=CCC[C@](C)(O[C@@H]1O[C@H](CO)[C@@H](O)[C@H](O)[C@H]1O)[C@H]1CC[C@]2(C)[C@@H]1[C@H](O)C[C@@H]1[C@@]3(C)CC[C@H](O)C(C)(C)[C@@H]3[C@@H](O[C@@H]3O[C@H](CO)[C@@H](O)[C@H](O)[C@H]3O[C@@H]3O[C@@H](C)[C@H](O)[C@@H](O)[C@H]3O)C[C@]12C [ginsenoside Re] as well?
Ans. 39
